- system-tested: Carbonic anhydrase 2 (Homo sapiens, UniProt P00918)
pIC50: −log10 of the molar value.
property-measured: pIC50

[[record]]
cpd_smiles = "O=C(c1cc(O)c(O)cc1Br)c1cc(Br)c(O)c(O)c1O"
recorded_value = 4.61

